Tested on: 926638-142-R-J1-PDC complex spheroid viability
protocol: Anticancer human tumor 926638-142-R-J1-PDC patient-derived endometrial carcinoma cell line growth inhibition [POLQ]
assay_conditions: second compound 3.16 µM; first compound 10 µM; stronger effect = lower value
readout_kind: viability, T/C (%)

1. COc1cc(C2c3cc4c(cc3C(OC3OC5COC(C)OC5C(O)C3O)C3COC(=O)C23)OCO4)cc(OC)c1O (stereo not drawn) + Cc1cccc(N(C)C(=O)C2C(O)CCN2c2nc(C)cc(C(F)(F)F)c2C#N)c1 = 50.2
2. CC1COCCN1c1cc(C2(S(C)(=N)=O)CC2)nc(-c2ccnc3[nH]ccc23)n1 (stereo not drawn) + COC1C(OC(N)=O)C(O)C(Oc2ccc3c(O)c(NC(=O)c4ccc(O)c(CC=C(C)C)c4)c(=O)oc3c2C)OC1(C)C = 32.4
3. C=CC(=O)N1CCN(c2nc(=O)n(-c3c(C)ccnc3C(C)C)c3nc(-c4c(O)cccc4F)c(F)cc23)C(C)C1 (stereo not drawn) + Nc1ccc(C#CCN(C(=O)Cc2ncc(C(F)(F)F)cc2C(F)(F)F)c2ccc(F)cc2)nn1 = 53.8

* * *

Tested on: 926638-142-R-J1-PDC complex spheroid viability
protocol: Anticancer human tumor 926638-142-R-J1-PDC cell line growth inhibition [POLQ];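 note: spheroids exposed to drugs for one week before readout; percent viability relative to DMSO vehicle control wells set as 100%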
assay_conditions: second compound 10 µM; first compound 0.316 µM; stronger effect = lower value
readout_kind: viability, T/C (%)

1) COc1ccc([C@@H](O)c2cc(-c3ncnc4cc(N5CCOCC5)ccc34)c(F)cc2Cl)nn1 + Nc1ccc(C#CCN(C(=O)Cc2ncc(C(F)(F)F)cc2C(F)(F)F)c2ccc(F)cc2)nn1 = 65.6
2) CC1COCCN1c1cc(-c2ccnn2C)c2ccnc(-c3ccn[nH]3)c2n1 (stereo unspecified) + Nc1ccc(C#CCN(C(=O)Cc2ncc(C(F)(F)F)cc2C(F)(F)F)c2ccc(F)cc2)nn1 = 52.5
3) CCc1cc2c(N3CCc4c(cc(Cn5ccnc5)cc4-c4cn(C)nc4C(F)(F)F)C3=O)cc(C)nc2c(OC)n1 + Cc1cccc(N(C)C(=O)C2C(O)CCN2c2nc(C)cc(C(F)(F)F)c2C#N)c1 = 45.1
4) C#Cc1c(F)ccc2cc(O)cc(-c3ncc4c(N5CC6CCC(C5)N6)nc(OCC56CCCN5CC(F)C6)nc4c3F)c12 (stereo unspecified) + Cc1cccc(N(C)C(=O)C2C(O)CCN2c2nc(C)cc(C(F)(F)F)c2C#N)c1 = 67.2
5) CCc1cc2c(N3CCc4c(cc(Cn5ccnc5)cc4-c4cn(C)nc4C(F)(F)F)C3=O)ccnc2c(OC)n1 + Cc1cccc(N(C)C(=O)C2C(O)CCN2c2nc(C)cc(C(F)(F)F)c2C#N)c1 = 58.4
6) CC(C)n1c(=O)n(C)c2cnc3cc(F)c(-c4ccc(OCCCN5CCCCC5)nc4)cc3c21 + Cc1cccc(N(C)C(=O)C2C(O)CCN2c2nc(C)cc(C(F)(F)F)c2C#N)c1 = 107
7) C=CCn1c(=O)c2cnc(Nc3ccc(N4CCN(C)CC4)cc3)nc2n1-c1cccc(C(C)(C)O)n1 + Nc1ccc(C#CCN(C(=O)Cc2ncc(C(F)(F)F)cc2C(F)(F)F)c2ccc(F)cc2)nn1 = 49.1
8) COc1cccc(OCCCN)c1-c1cc(Nc2cnc(C#N)cn2)n[nH]1 + Nc1ccc(C#CCN(C(=O)Cc2ncc(C(F)(F)F)cc2C(F)(F)F)c2ccc(F)cc2)nn1 = 51.3
9) C=CC(=O)N1CCN(c2nc(=O)n(-c3c(C)ccnc3C(C)C)c3nc(-c4c(O)cccc4F)c(F)cc23)C(C)C1 (stereo unspecified) + Nc1ccc(C#CCN(C(=O)Cc2ncc(C(F)(F)F)cc2C(F)(F)F)c2ccc(F)cc2)nn1 = 78.2
10) CC1COCCN1c1cc(C2(S(C)(=N)=O)CC2)nc(-c2ccnc3[nH]ccc23)n1 (stereo unspecified) + Cc1cccc(N(C)C(=O)C2C(O)CCN2c2nc(C)cc(C(F)(F)F)c2C#N)c1 = 87.8
11) O=C(c1cc(Cc2n[nH]c(=O)c3ccccc23)ccc1F)N1CCN(C(=O)C2CC2)CC1 + Nc1ccc(C#CCN(C(=O)Cc2ncc(C(F)(F)F)cc2C(F)(F)F)c2ccc(F)cc2)nn1 = 80.1
